Measured GLC values are reported for all entries that follow.
Species: Rattus norvegicus
Assay: Open TG-GATES - Regimen: Single
Format: toxicity, organism-based, Sprague-Dawley
Set-up: regimen Single, gender Male, age 6 weeks
Conditions: in vivo, po, 100 mg/kg, 24 h, tissue Plasma, route gavage, dose level Low
Please respond with the number in mg/dL and leave the unit unwritten.

Any idea what its GLC is? The compound is O=NN1CCOCC1
164.2

Any idea what its GLC is? The compound is CN(C)C(=N)N=C(N)N
173.6

Any idea what its GLC is? The compound is CN(C)CCC=C1c2ccccc2COc2ccccc21 [DOXEPIN]
176.4

Now look at this entry.
Any idea what its GLC is? The compound is CCC1(c2ccccc2)C(=O)NC(=O)NC1=O
183.4
